For each of the compounds below, state its growth.
# Tested on: ACHN renal
# Measurement protocol: NCI-60 one-dose screen, 48 h (100 = growth as untreated, 0 = no growth, -100 = all killed)
# Assay setup: 10 µM unless noted
This is part of a sample that, as a whole, favours compounds with a hit. Of some 83,000 tested, about 20% had one in any assay. The source made the active and inactive calls. Rule for the calls: active = growth percent below 10; inactive = the rest.

Short answer please: growth, ACHN renal, entry `Cc1cc(C)c(C=O)c(C)c1` 108% (inactive)

Hello, I am looking for reported growth with ACHN renal for COc1cc(C2CC(c3cccc(Nc4ccncc4)c3)=NN2c2ccccc2)cc(OC)c1OC (stereo not drawn) . Could you help? 65.6% (inactive)

# returns recorded growth (system: ACHN renal) for COc1ccc(C(O)c2cc3c(N)c(C(=O)Nc4ccc(Cl)cc4)sc3nc2C)cc1 (stereo not drawn) 35.6% (inactive)

Notebook: pull reported growth for ACHN renal, entry `NC(=O)C1(N2CCCCC2)CCN(CCCC(=O)c2ccc(F)cc2)CC1` 90.9% (inactive)

Item `CC1(C)[C@H](O)CC[C@]2(C)[C@@H]1CC[C@@]13C[C@@H](CC[C@H]12)[C@@](O)(CO)C3` with ACHN renal - growth? 106% (inactive)

What growth appears in the records for this compound with ACHN renal? `c1ccc(-c2nn(-c3ccccc3)[n+](-c3ccccc3-c3ccccc3)n2)cc1` 56% (inactive)

Value wanted: growth (ACHN renal) of entry O=C1CCC(NC(=S)Nc2ccccc2)N1 (stereo not drawn) 109% (inactive)

What is its growth for ACHN renal? Entry: Cc1ccc(C2CC(c3cccc(Nc4ccncc4)c3)=NN2c2ccccc2)cc1 (stereo not drawn) -99.8% (active)

Report growth for `O=c1[nH]c(=O)[nH]c(=S)[nH]1` tested on ACHN renal. 94.3% (inactive)

Enter reported growth observed with ACHN renal for CCCC1C(C(=O)OCC)=C(N)Oc2cc(O)ccc21 (stereo not drawn) 94.1% (inactive)

Look up growth with ACHN renal for this compound: CN1C(=O)N(C)C2NC(N/N=C/c3ccccc3)=NC21 (stereo not drawn) 102% (inactive)

Request - read-out growth | tested on ACHN renal | compound `CCSc1ccc2c(c1)N(CCCN1CCN(C)CC1)c1ccccc1S2` 43.5% (inactive)

Form entry - test system: ACHN renal; read-out: growth; compound: `c1ccc(-c2nnc(Nc3ccc4c(c3)OCCO4)o2)c(NCc2ccncc2)c1` 23.4% (inactive)

Param readout = growth; param system = ACHN renal; param query = `O=C(NCCN1CCOCC1)OCc1nc2nc(Cl)nc(N3CCOCC3)c2[nH]1` ; response: value 33.1% (inactive)

Request body: readout growth, system ACHN renal, query CC1=NNC(=O)C1CCC(=O)N/N=C(\C)c1ccc2ccccc2c1 (stereo not drawn) . Return the value. 111% (inactive)

Which measured growth belongs to `CN(C)C(=O)OCc1nc2c(N3CCOCC3)nc(-c3ccccc3)nc2n1C` , tested on ACHN renal? -99.8% (active)

Request: growth, test system ACHN renal, entry CCN(CC)CCCC(C)Nc1c2c(nc3ccc(OC)cc13)CCCC2 (stereo not drawn) 96.4% (inactive)

growth of `COc1ccccc1/C=C1\Oc2cc(OCCCN3CCCC3)ccc2C1=O` on ACHN renal? 97.4% (inactive)

// lookup growth | system=ACHN renal | key= `COc1ccc(C(=O)c2cc(C)c(OC)c(C)c2)c(OC)c1O` 22.5% (inactive)

Please tell me: growth of `COc1ccc(/C=C2\COc3ccc(-c4ccccc4)cc3C2=O)cc1O` , system ACHN renal? 47.3% (inactive)

Give ACHN renal growth for `ClCC1(Cn2cnc3c(Cl)nc(Cl)nc32)COC1` 94.9% (inactive)

Param readout = growth; param system = ACHN renal; param query = `COc1cc2nc(-c3ccc(C(F)(F)F)cc3)cc(OCCN3CCC(O)CC3)c2cc1OC` ; response: value 75.5% (inactive)

Given the entry `O=C1Nc2ccccc2/C1=N/c1nc(-c2ccc(Cl)cc2)cs1` , what growth was observed with ACHN renal? 80.2% (inactive)

Lab note: need growth with ACHN renal for entry CCC1(CC)NC(=O)c2c(c3ccc(Cl)c(Cl)c3n2C)C1C#N (stereo not drawn) , please look it up. 95.5% (inactive)

Can you look up growth on ACHN renal for `COc1cc2ncnc(Nc3ccc(C(=O)/C=C/c4ccc(C(F)(F)F)cc4F)cc3)c2cc1OC` ? 92.3% (inactive)

Short answer please: growth, ACHN renal, entry `Cn1c(COC(=O)NCCn2ccnc2)nc2c(N3CCOCC3)nc(-c3ccccc3)nc21` -100% (active)

Requested read-out growth, target or system ACHN renal, entry COc1ccccc1C(C[N+](=O)[O-])c1c(-c2ccccc2)[nH]c2cc(C)ccc12 (stereo not drawn) 73.4% (inactive)

For ACHN renal, provide growth of `CN1CCN(Cc2ccc(NC(=O)c3cncc(C#Cc4cnccc4C(F)(F)F)c3)cc2C(F)(F)F)CC1` please. 75.8% (inactive)

Return growth measured with ACHN renal given this compound: `CCCN=C(N)c1ccc(NC(=O)c2ccc(C(=O)Nc3ccc(C(N)=NCCC)cc3)cc2)cc1` 91.8% (inactive)

Form field: growth recorded for `CC(C)[N+](C)(CCOC(COc1ccccc1)COc1ccccc1)C(C)C` with ACHN renal (enter value) 105% (inactive)

# get_value(readout= growth, system= ACHN renal) for `CCNNC(=O)[C@@H]1[C@H](c2cc(OC)c(OC)c(OC)c2)c2cc3c(cc2[C@H](O)[C@H]1CO)OCO3` 28.6% (inactive)

Give the reported growth for `COc1ccc(-c2c(-c3ccccc3)noc2N)cc1OC` (system: ACHN renal). 133% (inactive)

Form: Entry = `O=S(=O)(c1ccccc1)N1CCCc2ccccc21` | System = ACHN renal | growth = ____ 99.4% (inactive)

Where do these numbers come from? They come from PubChem BioAssay (NCI).
